Molecular target: T1, PUF4 RNA-binding domain (Saccharomyces cerevisiae, UniProt P25339 537-888)
T1 sequence: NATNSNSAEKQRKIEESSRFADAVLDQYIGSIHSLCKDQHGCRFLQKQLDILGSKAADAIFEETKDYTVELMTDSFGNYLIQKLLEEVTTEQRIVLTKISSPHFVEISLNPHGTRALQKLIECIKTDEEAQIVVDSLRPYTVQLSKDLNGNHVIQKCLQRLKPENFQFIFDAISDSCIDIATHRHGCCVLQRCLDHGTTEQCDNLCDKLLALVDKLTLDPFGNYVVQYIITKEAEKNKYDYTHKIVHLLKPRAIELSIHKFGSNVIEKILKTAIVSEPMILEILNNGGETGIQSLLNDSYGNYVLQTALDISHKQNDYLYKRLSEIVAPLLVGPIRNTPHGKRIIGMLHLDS
Experiment: Mg; RNA-MaP; 20 mM Na-HEPES pH 7.4, 30 mM KOAc, 0.75 mM MgCl2, 0.1% Tween-20, 5% glycerol, 0.1 mg/mL BSA, 2 mM DTT; 25 C; 0.0125-409.6 nM protein
Details: tags: N-His6-TEV cleaved; C-SNAP kept, Cy3B-labelled; label: tethered on chip by stalled RNA polymerase
assay-endpoint: pKd
One number for each entry, as −log10 of the molar value.

{"columns": ["binder", "pKd"],
 "data": [
  ["UCUCUUAUACACUUAUUACAUCUCUU (ssRNA) [Id_ii_S1_P5E.4_K5.3_C5.2_[C-2A]_H5.3_A5.1_F5.1_T5.2_[T11C]]", 6.31]
]}

Turning now to a further binder:
Look up pKd: Ie_S2_P3E.2_K3.1_C3.2_H3.1_[+2CTC]_A3.1_F3.1_T3.2 (ssRNA) RNA: UUUGAUUAAUAUGAUAUCGUUCUUUCUCUUGCUCUAUAUAUAUUCUUUCUCGAUAUCAUAUUAAUCUUU 7.20
